Every entry's value here was drawn from patent US20250101107A1.

# measured.target: T1, human CD8 on human T cells (human, UniProt P01732 22-235; P10966 22-210)
# T1 construct: whole, on cells; Target as carried by human CD3+/CD8+ T cells, PBMCs or MART-1-specific T cells; the mice were immunized with human CD8a; also called hCD8; CD8 expressed on the cell surface
# T1 sequence (P01732 22-235, chain 1 of 2): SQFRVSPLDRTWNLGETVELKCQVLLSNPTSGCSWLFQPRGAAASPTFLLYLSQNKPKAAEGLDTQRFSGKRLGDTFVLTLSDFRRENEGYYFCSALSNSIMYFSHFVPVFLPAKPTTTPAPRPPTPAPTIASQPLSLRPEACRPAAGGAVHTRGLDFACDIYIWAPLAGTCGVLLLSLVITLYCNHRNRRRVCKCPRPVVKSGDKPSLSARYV
# T1 sequence (P10966 22-210, chain 2 of 2): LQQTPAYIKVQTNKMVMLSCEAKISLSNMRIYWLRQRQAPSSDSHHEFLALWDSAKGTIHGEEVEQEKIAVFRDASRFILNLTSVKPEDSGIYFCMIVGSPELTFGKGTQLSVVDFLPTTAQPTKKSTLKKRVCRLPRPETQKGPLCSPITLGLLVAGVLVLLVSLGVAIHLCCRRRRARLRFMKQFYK
# protocol: flow cytometry, 0.2 nM antibody on human CD8+ T cells, anti-human IgG detection (MFI AF647)

{"binder": "humanized 02A01-VH3-VK1 (antibody, V domains shown) VH: EVQLVQSGAEVKKPGATLKISCKASGYTFTDFTMHWVQQAPGKGLEWIGLVNPNNGGNIYAEKFQGRATLTVDTSTSTAYMELSSLRSEDTSVYYCGRVPLYTSHGMDYWGQGTLVTVSS VL: EIVLTQSPATLSVSPGERATISCRASESVDSYDINSMHWYQQKPGQPPRLLIYRASHLQSGIPARFSGSGSRTDFTLTISSVEPEDFATYYCQQSNEDPLTFGQGTKLEIK", "binding result": "binds"}
{"binder": "humanized 02A01-VH2-VK1 (antibody, V domains shown) VH: EVQLVQSGAEVKKPGATLKISCKASGYTFTDFTMHWVQQAPGKGLEWIGLVNPNNGGNIYNQNFKGRATLTVDTSTSTAYMELSSLRSEDTSVYYCGRVPLYTSHGMDYWGQGTLVTVSS VL: EIVLTQSPATLSVSPGERATISCRASESVDSYDINSMHWYQQKPGQPPRLLIYRASHLQSGIPARFSGSGSRTDFTLTISSVEPEDFATYYCQQSNEDPLTFGQGTKLEIK", "binding result": "binds"}
